# System: monoclonal antibody of clone C-3 (anti-dioxin antibody)
# TEST_METHOD_NOTES: Competitive EIA: inhibition of binding of clone C-3 monoclonal antibody to solid-phase antigen by free dioxin
# Set-up: species or system mouse
# MEASUREMENT_CONTEXT: solid-phase antigen * (haptenized product of 6-(2,4,5-trichlorophenoxy) hexanoic acid amide derivative IIa), dioxin compound 5×10^−7 M
MEASURED_METRIC: Inhibition rate (%)
Numbers only here, please. The scale is %.

Consider the following illustrative entries.
Input: Reported Inhibition rate for Clc1c(Cl)c(Cl)c2c(oc3c(Cl)c(Cl)c(Cl)c(Cl)c32)c1Cl [OCDF] : what is it?
Output: 4.9

Input: Subsequent entry: Clc1cc2oc3cc(Cl)c(Cl)c(Cl)c3c2cc1Cl [1,2,3,7,8-PeCDF]
Output: 23.2

Input: Subsequent entry: Clc1cc2c(oc3c(Cl)c(Cl)c(Cl)c(Cl)c32)c(Cl)c1Cl [1,2,3,4,6,7,8-HpCDF]
Output: 3.4

Input: Subsequent entry: Clc1cc2c(c(Cl)c1Cl)Oc1cc(Cl)c(Cl)c(Cl)c1O2 [1,2,3,6,7,8-HxCDD]
Output: 6.7

Others:
Input: Reported Inhibition rate for Clc1cc2oc3cc(Cl)c(Cl)c(Cl)c3c2c(Cl)c1Cl [1,2,3,7,8,9-HxCDF] : what is it?
Output: 48.1

Input: Subsequent entry: Clc1cc2oc3c(Cl)c(Cl)c(Cl)cc3c2cc1Cl [2,3,4,7,8-PeCDF]
Output: 46.2

Input: Subsequent entry: Clc1cc2c(oc3cc(Cl)c(Cl)c(Cl)c32)c(Cl)c1Cl [1,2,3,6,7,8-HxCDF]
Output: 4.1

Input: Subsequent entry: Clc1c(Cl)c(Cl)c2c(c1Cl)Oc1c(Cl)c(Cl)c(Cl)c(Cl)c1O2 [OCDD]
Output: −3.7
